# TEST_SYSTEM: Mre11ND H52S (Pyrococcus furiosus, UniProt Q8U1N9 1-342, H52S)
# PROCEDURE_DETAILS: fluorescence polarization
PROPERTY_LABEL: pKd
pKd (log units): -log10 of the concentration in mol/L.

Query: Would you mind telling me what pKd value was observed for GTGTTCGGACTCTGCCTCAAGACGGTAGTCAACGTGCTTG (ssDNA) [FAM 40-mer ssDNA] ?
Reply: 6.77
